Provenance of the data: the supplement of paper PMC6555819

# System: THRa:RXRa (NR concentration 90 nM, RXRa partner concentration 90 nM)
# assay.details: PBM binding z-score (relative to random genomic background probes); higher = stronger binding; sequences stand for … in GC…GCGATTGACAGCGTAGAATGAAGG
measured.attribute: PBM binding z-score
Lab note: write the figure by itself, no unit.

Record excerpt, results attached:
ATTAGCAGGCCAAGGGTCACTCAAGATTAGTCCG	2.7
TGAATGAGTTTATAAGATCAGGGAACGTTGCAAA	0.0488
ATCTCTAGGTAAAATTCAGTGAAAGATCGATAGA	0.32

Now for a further sequence.
For the sequence CCAACTGGGGCATAAGGTTACCATAAGCCAGCCC , what PBM binding z-score is on record?
1.97

====

# Test system: FXR:RXRa (NR concentration 270 nM, RXRa partner concentration 90 nM)
# assay.details: PBM binding z-score (relative to random genomic background probes); higher = stronger binding; sequences stand for … in GC…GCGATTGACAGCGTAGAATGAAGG
Could you label it 1 if measured PBM binding z-score is 1 or higher, and -1 otherwise?

GGAACGAGGGCAAAGTTTATAGCATCTGTCGACG	1
TAGCCTAGGTCATGGGCCAGAATACCACGCGAAC	1
GCTCGGAGGGCAAGGTCAGAGCTTTGTCCGTAGA	1
TGCATGAGGTTATAAGATCAGGGAACGTTGCAAA	1
ACTAGCAGGCCAAGGTTGGGTCACTCAAACAAAG	-1
CGAACTAGGTCAAGGACAGTGCATCTCCGCACGC	1
TCATATAGGTAGAGGTGAAAGTCGAACGATATGA	-1
TCTATTAGTTGAAGGGCAACCAACGAGTCCGTTT	-1
CCGGCTGGGGCATAAGGTTACCATAAGCCAGCCC	-1
ACTAGTTAGTCAGCTGAGGTCACACACAATTCGG	1

Form field: PBM binding z-score at least 1? Entry: TCTGGTAGATCAAGCAGGTTAAGAAAGCCTGAGT
-1

Form field: PBM binding z-score at least 1? Entry: GCGAATGGGGCATCAGCAGGTTACCATAACTTAA
-1

Form field: PBM binding z-score at least 1? Entry: TCTTGTAGATCAACAGGAGGTTAAGACAGATCGA
-1

Form field: PBM binding z-score at least 1? Entry: TGGCCTAGGTCATTCAGGGGCCAGTATAGAAAGC
1

Form field: PBM binding z-score at least 1? Entry: AATACAGGTTCACTAGGCCAGAGTAGGTACGAAT
1

====

# Tested on: RARb:RXRa (NR concentration 270 nM, RXRa partner concentration 90 nM)
# assay.details: PBM binding z-score (relative to random genomic background probes); higher = stronger binding; sequences stand for … in GC…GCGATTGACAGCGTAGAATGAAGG
Just so you know, the groups by PBM binding z-score go like this: Low (below 0.8), Medium (0.8 to below 4), High (4 or more)

TGTCAAAGTTCAAAGGTAACGTAAGTATCCACAC	High
ACTAGCAGGCCAAGTTTGGGTCACTCATACAAAG	Medium

Input ATACCAAGGTGATCGTGAGGTCATTGATACTAAC ; output its category
Medium

Input CGAACTAGGTCACAACAGGACAGTGAAGGATGAT ; output its category
Medium

====

# Test system: RXRa homodimer (NR concentration 180 nM)
# assay.details: PBM binding z-score (relative to random genomic background probes); higher = stronger binding; sequences stand for … in GC…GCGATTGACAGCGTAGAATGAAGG
Could you label it class 1 if measured PBM binding z-score is 0.7 or higher, and class 0 otherwise?

These solved cases illustrate the format of a correct answer.
GCTGCTAGGTCAACTGATGATCAGCTAAAGCTCG	class 1
ACTAGCAGGCCAAGTTTAGGTCACTCAAACAAAG	class 1
CCTACTGGGCCACGAAAGGTCATTGAGTCAGTGA	class 1
CGAACTAGGTCATTGTCAGGACAGTGAATAGTAA	class 1
TCATATAGGTAAAGATGAAAGTCGAACGATATGA	class 0

Form field: PBM binding z-score at least 0.7? Entry: ATACCAAGGTGATCGTTAGGTCGTTGATACTAAC
class 0

====

# Test system: THRa:RXRa (NR concentration 90 nM, RXRa partner concentration 90 nM)
# assay.details: PBM binding z-score (relative to random genomic background probes); higher = stronger binding; sequences stand for … in GC…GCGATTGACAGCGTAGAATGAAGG
measured.attribute: PBM binding z-score
Lab note: write the figure by itself, no unit.

TCTTGTAGATCCAGCAGGTTAAGAAAGCCTGAGT	0.192
CCATACAGGTGAGAAGGTAACTCAGCCTCGATTA	0.148
CCGACTGGGGCAGAAAGGTTACCATGCCATCCGG	1.05
CGTCCAAGGTCATCAGGTCAGTGAAAGCGACGTG	4.34
CCTAGCTGGCCAGGGTCACTCAAGCATTTCGCTT	2.88
CCAGACAGGAGAAAGGTAACTCAGTCTGGTACGC	-0.00788
CGTACAAGGTCATAGGAGGTCAGTGAAGACAGAT	5.49
CCTACTGGGCCATTCAGAGGTCATTCATCATATG	3.14
CCTACTGGACCAAAGGTCATTGATTCCAATGCTC	3.46
AGATGTAGGTTAAGGGTCATTCAGGTTGGTTCGC	3.64

For the sequence ATACCAAGGTGATCGTGAGGTCGTTGTTACTAAC , what PBM binding z-score is on record?
3.27

For the sequence ATCTCTACGTAACCAAGTTCAGTGAATGCCGAAC , what PBM binding z-score is on record?
0.592

====

# Tested on: RARa homodimer (NR concentration 270 nM)
# assay.details: PBM binding z-score (relative to random genomic background probes); higher = stronger binding; sequences stand for … in GC…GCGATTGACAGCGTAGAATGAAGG
Just so you know, the groups by PBM binding z-score go like this: bottom = under -0.1, middle = from -0.1 up to 0.4, top = 0.4 and over

These solved cases illustrate the format of a correct answer.
TTACCAAAGTGAAGGTCGTTGATCCCTCTGTAGA	bottom
CTACCAAGGTGCACAAGGTCGTTGATTACTATTC	top
CGTCCAAGGTCAGAGAGCTCAGTGAATGCCGAGT	middle
GGAACGAGGGCAAAGTTGATAGGATCTGTCGACG	middle

Input CCTACTGGGCCAAAGTTCATTGATTCCAATGCTC ; output its category
top

Input GCTAGCAGGCCATTTGGCTCACTCAATGACGGGC ; output its category
bottom

Input GGAACGAGGGCAAAGTTGATACCATCTGTCGACG ; output its category
middle

Input TCTTGTAGATCAAGAAGGTTAAGAAAGCCTGAGT ; output its category
middle

Input TCGAGTAGGTTACCAATGGGGCATTGAGCTTTCT ; output its category
bottom

Input TCTCGGAGGACACGAGAGGTCAGAGCTCGACATC ; output its category
bottom

====

# Test system: RARa homodimer (NR concentration 270 nM)
# assay.details: PBM binding z-score (relative to random genomic background probes); higher = stronger binding; sequences stand for … in GC…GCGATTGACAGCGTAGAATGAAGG
Could you label it Y if measured PBM binding z-score is -0.2 or higher, and N otherwise?

These solved cases illustrate the format of a correct answer.
CGAACTAGGGCAAGGACAGTGAATCTCCGCACGC	N
CGTCCAAGGTTAATGCTAGGTCAGTGAAAGCATT	Y
TCGAGTAGGTTAGGGGCATTAAGAATGGCGTCGA	Y

Form field: PBM binding z-score at least -0.2? Entry: GATACAGGGTTAGCTAGAGGCCAGAGTATGGAAA
N

Form field: PBM binding z-score at least -0.2? Entry: ATCTCTAGGTAAAGCTAGTTCAGTGAATGCAAAT
Y

Form field: PBM binding z-score at least -0.2? Entry: GATACAGGGACAGCTAGAGGCCAGAGTATGGAAA
Y

====

# System: LXRb homodimer (NR concentration 270 nM)
# assay.details: PBM binding z-score (relative to random genomic background probes); higher = stronger binding; sequences stand for … in GC…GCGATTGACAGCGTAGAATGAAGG
measured.attribute: PBM binding z-score
Lab note: write the figure by itself, no unit.

Record excerpt, results attached:
CAAACTAGGTCAGAGAGGTCAAAGTCCGTGCGTA	1.48
GATACAGGGTCTGCTAGAGGCCAGAGTATGGAAA	-0.649
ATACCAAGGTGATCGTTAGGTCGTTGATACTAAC	-0.0967
TCGAGTAGGTTAGAGGCATTCAGAATGGCGTCGA	-1.72
TGTCAAAGTACAAAGGTAACGTAAGTATCCACAC	-0.294
CCCTACGGGTCACTCCAGGTTATAGCATCGGAGT	0.052
CTACCAAGGTGAACAAGGTCGTGGATTACTATTC	-0.448
GGAAGGAGGGCAAGTTGATAGCAGAGTTTGATGG	1.47
ACTAGCTGGTCAGCTGAGGTCACACACAATTCGG	-0.0797
TAGCCTAGGTCATTGGGCCTGTATAGTACGCATC	-0.0318

For the sequence AGAACGAGGGCACGCTGAGTTGAAAGCAGAGTAG , what PBM binding z-score is on record?
-0.933

For the sequence CCTATCAGGCCAGGGTCACTCAAGCATTTCGCTT , what PBM binding z-score is on record?
-0.67
